- Study system: T1, human vascular endothelial growth factor receptor-2 Fc chimera (KDR-Fc) (human, UniProt P35968 20-764)
- T1 construct: range 1-764; purchased from R&D Systems; also called hKDR; human VEGF-R2-Fc; not shown: human IgG1 Fc
- T1 sequence (P35968 20-764 limits assumed, change not shown, form in doubt): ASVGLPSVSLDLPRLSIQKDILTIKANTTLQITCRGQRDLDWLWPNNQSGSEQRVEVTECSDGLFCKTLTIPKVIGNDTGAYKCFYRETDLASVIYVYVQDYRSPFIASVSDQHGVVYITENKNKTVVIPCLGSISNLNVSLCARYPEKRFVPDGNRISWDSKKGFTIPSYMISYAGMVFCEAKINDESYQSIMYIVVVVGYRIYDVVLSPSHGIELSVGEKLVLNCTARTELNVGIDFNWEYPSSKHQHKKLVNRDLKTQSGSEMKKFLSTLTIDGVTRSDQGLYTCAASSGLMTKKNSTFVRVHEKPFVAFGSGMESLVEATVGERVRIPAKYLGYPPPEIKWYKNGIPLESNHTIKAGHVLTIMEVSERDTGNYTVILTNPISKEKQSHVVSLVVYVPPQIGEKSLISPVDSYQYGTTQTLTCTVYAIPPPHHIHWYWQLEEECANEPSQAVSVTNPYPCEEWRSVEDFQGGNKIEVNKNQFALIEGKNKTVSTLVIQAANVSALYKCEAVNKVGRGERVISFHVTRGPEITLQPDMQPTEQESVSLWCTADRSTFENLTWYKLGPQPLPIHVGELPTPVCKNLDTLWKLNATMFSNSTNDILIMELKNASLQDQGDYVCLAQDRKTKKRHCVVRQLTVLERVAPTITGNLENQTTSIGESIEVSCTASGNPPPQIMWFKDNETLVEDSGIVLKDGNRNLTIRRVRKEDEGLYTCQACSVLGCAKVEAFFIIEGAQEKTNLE
- Protocol summary: BIAcore, target-Fc immobilized
- Protocol: The binding kinetics of fibronectin-based scaffold proteins binding proteins to the target was measured using BIAcore 2000 biosensor (Pharmacia Biosensor). […] Sensorgrams were obtained at each concentration and were evaluated using a program, BIA Evaluation 2.0 (BIAcore), to determine the rate constants kₐ (kₒₙ) and kd (koff.) The affinity constant, KD was calculated from the ratio of rate constants […].

- Binder: "E29 (designed binder, Del 1-8 10Fn3 clone; Flag-tagged in vitro translated protein in the radioactive assay, His6-tagged E. coli protein in BIAcore and cell assays; tags left out) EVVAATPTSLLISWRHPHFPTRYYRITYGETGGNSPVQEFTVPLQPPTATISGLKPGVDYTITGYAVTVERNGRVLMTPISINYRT"
  koff: "7e-05 s⁻¹"
- Binder: "E19 (designed binder, Del 1-8 10Fn3 clone; Flag-tagged in vitro translated protein in the radioactive assay, His6-tagged E. coli protein in BIAcore and cell assays; tags left out) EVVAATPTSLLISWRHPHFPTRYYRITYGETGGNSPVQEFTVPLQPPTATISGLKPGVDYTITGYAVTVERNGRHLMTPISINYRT"
  koff: "1.7e-05 s⁻¹"
- Binder: "E26 (designed binder, Del 1-8 10Fn3 clone; Flag-tagged in vitro translated protein in the radioactive assay, His6-tagged E. coli protein in BIAcore and cell assays; tags left out) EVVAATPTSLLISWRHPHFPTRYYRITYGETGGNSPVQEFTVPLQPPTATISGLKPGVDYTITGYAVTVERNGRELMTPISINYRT"
  koff: "5.8e-05 s⁻¹"
- Binder: "E25 (designed binder, Del 1-8 10Fn3 clone; Flag-tagged in vitro translated protein in the radioactive assay, His6-tagged E. coli protein in BIAcore; tags left out) EVVAATPTSLLISWRHPHFPTRYYRITYGETGGNSPVQEFTVPLQPPTATISGLKPGVDYTITGYAVTLERNGRELMTPISINYRT"
  koff: "5.2e-05 s⁻¹"
- Binder: "159(Q8L) (designed binder, clone 159 with Q8 corrected to the wild type L; His6-tagged E. coli protein in BIAcore, tag left out; also called Clone 159 (Q8L)) VSDVPRDLEVVAATPTSLLISWRHPHFPTRYYRITYGETGGNSPVQEFTVPLQPPAATISGLKPGVDYTITGYAVTMAQSGHELFTPISINYRT"
  koff: "0.0001 s⁻¹"
